Please respond with reported LD50 at 48 h for every item in the list.
Assay: Acute toxicity determination, oral LD50 by method of BEHRENS and KARBER
Conditions: mouse, in vivo, female Swiss mice, 48 hours observation
Provide the reading as a plain figure in mg/kg.

Enquiry: Suppose we examine the molecule C=CCNc1ccc(C(C)C(=O)OC)cc1 (stereo not shown) [methyl 2-(p-allylaminophenyl)propionate, Methyl 2-(p-allylaminophenyl)-propionate] ; what LD50 at 48 h value has been reported?
Return: 1600

Enquiry: Suppose we examine the molecule CC(=O)Oc1ccccc1C(=O)O [acetylsalicylic acid, reference compound] ; what LD50 at 48 h value has been reported?
Return: 1500

Enquiry: Suppose we examine the molecule C=C(C)CNc1ccc(C(C)C(=O)O)cc1 (stereo not shown) [2-(p-methallylaminophenyl)propionic acid, 2-(p-Methallylaminophenyl)propionic acid] ; what LD50 at 48 h value has been reported?
Return: 2400

Enquiry: Suppose we examine the molecule CCNc1ccc(CC(=O)O)cc1 [p-ethylaminophenylacetic acid, p-Ethylaminophenylacetic acid] ; what LD50 at 48 h value has been reported?
Return: 2910

Enquiry: Suppose we examine the molecule CCCNc1ccc(CC(=O)O)cc1 [p-n-propylaminophenylacetic acid, p-n-Propylaminophenylacetic acid] ; what LD50 at 48 h value has been reported?
Return: 2400

Enquiry: Suppose we examine the molecule C#CCNc1ccc(C(C)C(=O)O)cc1 (stereo not shown) [2-(p-propargylaminophenyl)propionic acid] ; what LD50 at 48 h value has been reported?
Return: 2400
